Assay: melting temperature; fluorescence melt of hairpins on a sequencing array, two-state fit, raised by 9.35 °C to match UV melts
Conditions: sodium 0.088 M
// boundary case: Tm equal to 50 °C maps to Criterion not met; strictly smaller maps to Criterion met

>>> df
                            residue_codes              class
 0  GCGGGGCGAAAGCACTGC ((.(.((....)).).))  Criterion not met
 1  GGCTGAGGAAACTCGGCC (((.(((....))).)))  Criterion not met
 2  GAACCGCGAAAGCGATTC (((.(((....))).)))      Criterion met
 3      GATCCGGACTCGGATC ((((((....))))))  Criterion not met
 4    GGACGGCGAAAGCCTCC (((.(((....))))))  Criterion not met
 5  GTAATCGGAAACGGTTAC ((((.((....)).))))      Criterion met
 6  GCTCTGCGAAAGCCGTGC ((.(.((....)).).))      Criterion met
 7  GGAGTTCCGAAAGGATCC (((..(((....))))))      Criterion met
 8    GAGAGACGAAAGTCCTC (((.(((....))))))      Criterion met
 9  GGAGCTCGAAAGAGATCC (((.(((....))).)))  Criterion not met
10  GCACCAGGAAACTAGTGC ((((.((....)).))))      Criterion met
11  GCACTGCGAAAGCAAAGC ((..(((....)))..))      Criterion met
12  GTCGCGGGAAACCACGAC ((((.((....)).))))  Criterion not met
13  GGGAACGGAAACGTTTCC ((.((((....)))).))  Criterion not met
